Each entry below carries its recorded abundance fitness.
B1: POU domain, class 2, transcription factor 3, residues 186 to 260; numbered along this chain, Q9UKI9 (parent)
chain: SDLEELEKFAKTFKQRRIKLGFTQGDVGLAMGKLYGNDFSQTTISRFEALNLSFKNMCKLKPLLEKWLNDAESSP

variants of: B1; experiment: abundance fitness (aPCA) (normalised: wild type 0, dead -1); higher = more abundant; growth selection in yeast, the domain comes from the species named; details: Homo sapiens
Answer as a number with no unit attached.

Consider the reported abundance fitness for these variants:
[
  {
    "Variant Key": "L68Y",
    "abundance fitness": -0.298
  },
  {
    "Variant Key": "N56P",
    "abundance fitness": -0.206
  },
  {
    "Variant Key": "D70V",
    "abundance fitness": -0.096
  },
  {
    "Variant Key": "E65C",
    "abundance fitness": -0.033
  },
  {
    "Variant Key": "M57K",
    "abundance fitness": -0.396
  },
  {
    "Variant Key": "N56W",
    "abundance fitness": 0.014
  },
  {
    "Variant Key": "N37I",
    "abundance fitness": -0.039
  },
  {
    "Variant Key": "E5G",
    "abundance fitness": -0.045
  },
  {
    "Variant Key": "L50R",
    "abundance fitness": 0.009
  },
  {
    "Variant Key": "P75Q",
    "abundance fitness": -0.086
  }
]

Now look at this one.
Prompt line: Could you share which abundance fitness value was measured for E5M ?
Response line: 0.016
